System: MDA-MB-435 cancer cells
Assay: SRB antiproliferative assay in MDA-MB-435 cells
Assay type: cell-based
Conditions: Homo sapiens, MDA-MB-435, read-out: IC50 ± SD (MDA-MB-435) Cancer cells
readout kind: pIC50
Answers are plain numbers, as −log10 of the molar value.

Please report the recorded pIC50 for COc1ccc(N(C)c2nc(C)nc3c2CCC3)cc1 [Compound 1] .
8.15

---

Test system: Parental SK-OV-3
Test: SRB assay in parental SK-OV-3 cells
Assay type: cell-based
Details: Homo sapiens, SK-OV-3, read-out: IC50 ± SD Parental SK-OV-3
readout kind: pIC50
Give bare numbers, as −log10 of the molar value.

Please report the recorded pIC50 for "COc1ccc(N(C)c2nc(C)nc3c2CCC3)cc1" .
7.95
